- Measurement Target: Human immunodeficiency virus type 1 protease (Human immunodeficiency virus 1, UniProt Q72874)
pIC50: −log10 of the molar value.
Quantity Measured: pIC50

Compound: CCC(C)c1cc(CN2CCN(C[C@@H](O)[C@H](Cc3ccccc3)NC(=O)O[C@@H]3CCS(=O)(=O)[C@@H]3C(C)C)[C@H](C(=O)NC(C)(C)C)C2)ccn1 (stereo partly specified)
Recorded Result: 8.92

---

- Protocol Summary: Maximum time taken to reach maximum blood concentration was determined in dogs after oral administration (8 mg/kg) as a 0.05 M citric acid solution.
- Assay type: ADME, organism-based, Canis lupus familiaris
- Cond: dog
Quantity Measured: Tmax (min)

Molecule Smiles: CCCc1cc(CN2CCN(C[C@@H](O)[C@H](Cc3ccccc3)NC(=O)O[C@@H]3CCS(=O)(=O)[C@@H]3C(C)C)[C@H](C(=O)NC(C)(C)C)C2)ccn1
Unit Of Measure: min
Recorded Result: 25
--
Molecule Smiles: Cc1cc(CN2CCN(C[C@@H](O)[C@H](Cc3ccccc3)NC(=O)O[C@@H]3CCS(=O)(=O)[C@@H]3C(C)C)[C@H](C(=O)NC(C)(C)C)C2)cc(C)n1
Unit Of Measure: min
Recorded Result: 40
